# Tested on: Escherichia coli TOP10;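 further: peptides expressed intracellularly from a pBAD plasmid library in pooled LB shake-flask culture, induced with 0.3% L-arabinose, DNA abundance read by NGS, three biological replicates, DESeq2 with apeglm shrinkage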
# Method: shrunken log2 fold change of peptide-encoding DNA abundance (4.5 h post-induction vs induction); higher = less antimicrobial activity (less host growth inhibition)
# Experimental Setup: time post-induction: 4.5 h; library: site-saturation at positions 5, 18, 19, 20
Result Type: shrunken log2 fold change

Input Sequence: RRIRWRPPRLPRPRPRPVIQPRP
Observed Result: -0.2
//
Input Sequence: RRIRVRPPRLPRPRPRPGYSPRP
Observed Result: -0.553
//
Input Sequence: RRIRFRPPRLPRPRPRPHLTPRP
Observed Result: -0.226
//
Input Sequence: RRIRSRPPRLPRPRPRPMAYPRP
Observed Result: -0.0939
//
Input Sequence: RRIRHRPPRLPRPRPRPIIEPRP
Observed Result: 0.0811
//
Input Sequence: RRIRVRPPRLPRPRPRPKEHPRP
Observed Result: 0.0755
//
Input Sequence: RRIRDRPPRLPRPRPRPRWKPRP
Observed Result: 0.0064
//
Input Sequence: RRIRARPPRLPRPRPRPFDNPRP
Observed Result: 0.098
//
Input Sequence: RRIRVRPPRLPRPRPRPPQGPRP
Observed Result: 0.203
//
Input Sequence: RRIRCRPPRLPRPRPRPTKEPRP
Observed Result: -0.0808
//
Input Sequence: RRIRTRPPRLPRPRPRPVSGPRP
Observed Result: -0.0612
//
Input Sequence: RRIRERPPRLPRPRPRPAQEPRP
Observed Result: 0.597
//
Input Sequence: RRIRHRPPRLPRPRPRPMKRPRP
Observed Result: 0.0794
//
Input Sequence: RRIRCRPPRLPRPRPRPISAPRP
Observed Result: -0.142
//
Input Sequence: RRIRTRPPRLPRPRPRPQMEPRP
Observed Result: 0.00225
//
Input Sequence: RRIRYRPPRLPRPRPRPSWEPRP
Observed Result: -0.153
//
Input Sequence: RRIRVRPPRLPRPRPRPIFEPRP
Observed Result: 0.149
//
Input Sequence: RRIRIRPPRLPRPRPRPCTKPRP
Observed Result: -0.151
//
Input Sequence: RRIRPRPPRLPRPRPRPRCHPRP
Observed Result: 0.144
//
Input Sequence: RRIRDRPPRLPRPRPRPGYIPRP
Observed Result: -0.304
//
Input Sequence: RRIRLRPPRLPRPRPRPPHCPRP
Observed Result: 0.177
//
Input Sequence: RRIRGRPPRLPRPRPRPYGNPRP
Observed Result: -0.102
//
Input Sequence: RRIRPRPPRLPRPRPRPAVHPRP
Observed Result: 0.0984
//
Input Sequence: RRIRFRPPRLPRPRPRPAVSPRP
Observed Result: -0.108
//
Input Sequence: RRIRHRPPRLPRPRPRPEHDPRP
Observed Result: -0.051
//
Input Sequence: RRIRARPPRLPRPRPRPIWRPRP
Observed Result: 0.426
//
Input Sequence: RRIRMRPPRLPRPRPRPMVTPRP
Observed Result: 0.131
//
Input Sequence: RRIRKRPPRLPRPRPRPNYHPRP
Observed Result: -0.331
//
Input Sequence: RRIRSRPPRLPRPRPRPWYCPRP
Observed Result: 0.017
//
Input Sequence: RRIRCRPPRLPRPRPRPDWFPRP
Observed Result: -0.141
//
Input Sequence: RRIRDRPPRLPRPRPRPEEKPRP
Observed Result: 0.766
//
Input Sequence: RRIRLRPPRLPRPRPRPARLPRP
Observed Result: 0.647
